target: Tyrosine-protein kinase Fes/Fps (Homo sapiens); settings: at 1 µM
value kind: residual activity (%)
Response body: numeric value in %, unit text excluded.

Recorded results for 4 compounds are shown here.
[[record]]
compound = "Cc1nc2cc3nc(-c4cccs4)cnc3cc2n1C"
result = 134

[[record]]
compound = "Cc1ccc(NC2=CC(=O)c3sc(C)nc3C2=O)cc1"
result = 97

[[record]]
compound = "Oc1ccc(-c2nc(-c3ccc(F)cc3)c(-c3ccncc3)[nH]2)cc1"
result = 107

[[record]]
compound = "Oc1ccc(Nc2nc(-c3ccc(Cl)cc3)cs2)cc1"
result = 106


Incoming: # query: residual activity of entry Oc1n[nH]c2nnc(-c3c(-c4ccccc4)nn4ccccc34)cc12
Outgoing: 92

Incoming: How about this compound: COc1cccc(-c2cc(=O)c3ccccc3o2)c1N
Outgoing: 94

Incoming: Lookup O=C1NC(=O)c2cc(Nc3ccc(F)cc3)c(Nc3ccc(F)cc3)cc21
Outgoing: 112

Incoming: // next record CN(C)CCCn1cc(C2=C(c3c[nH]c4ccccc34)C(=O)NC2=O)c2ccccc21
Outgoing: 125

Incoming: // repeat for C[C@@H](N)[C@H]1CC[C@H](C(=O)Nc2ccncc2)CC1 and report
Outgoing: 108

Incoming: Same question for CCC(=O)Nc1ccc2ncnc(Nc3cccc(Br)c3)c2c1 please.
Outgoing: 115

###

target: Serine/threonine-protein kinase Nek11 (Homo sapiens); details: at 10 µM
value kind: residual activity (%)
Report the value in % with no unit label.

Some compounds with recorded residual activity:
[[record]]
molecular_string = "Ic1cccc(CSc2nnc(-c3ccncc3)o2)c1"
unit_descriptor = "%"
result = 102

[[record]]
molecular_string = "O=C1NC(=O)c2c1c1c3ccccc3[nH]c1c1[nH]c3cc(Br)ccc3c21"
unit_descriptor = "%"
result = 73

[[record]]
molecular_string = "O=C(Nc1cccc(Nc2nccc(Nc3cccc(C(F)(F)F)c3)n2)c1)C1CC1"
unit_descriptor = "%"
result = 80


Incoming: Bench note: what residual activity did COc1ccc(OC)c2c(=S)c3ccccc3[nH]c12 show?
Outgoing: 54

Incoming: // next record Nc1n[nH]c2nnc(-c3c(-c4ccccc4)nn4ccccc34)cc12
Outgoing: 97

Incoming: Entry to check: COc1ccc(S(=O)(=O)N(CCO)c2ccccc2CN(C)C/C=C/c2ccc(Cl)cc2)cc1
Outgoing: 109

Incoming: Now the compound c1ccc2c(-c3ccncc3)c[nH]c2c1
Outgoing: 67

Incoming: And then COc1cc2ncnc(Nc3ccc(O)c(Br)c3)c2cc1OC , what is it?
Outgoing: 64

Incoming: Further, for Cc1ccc(S(=O)(=O)/C=C/C#N)cc1 ?
Outgoing: 81

###

molecular target: Tyrosine-protein kinase BTK (Homo sapiens) (UniProt Q06187); details: at 10 µM
Sequence (Q06187 whole entry): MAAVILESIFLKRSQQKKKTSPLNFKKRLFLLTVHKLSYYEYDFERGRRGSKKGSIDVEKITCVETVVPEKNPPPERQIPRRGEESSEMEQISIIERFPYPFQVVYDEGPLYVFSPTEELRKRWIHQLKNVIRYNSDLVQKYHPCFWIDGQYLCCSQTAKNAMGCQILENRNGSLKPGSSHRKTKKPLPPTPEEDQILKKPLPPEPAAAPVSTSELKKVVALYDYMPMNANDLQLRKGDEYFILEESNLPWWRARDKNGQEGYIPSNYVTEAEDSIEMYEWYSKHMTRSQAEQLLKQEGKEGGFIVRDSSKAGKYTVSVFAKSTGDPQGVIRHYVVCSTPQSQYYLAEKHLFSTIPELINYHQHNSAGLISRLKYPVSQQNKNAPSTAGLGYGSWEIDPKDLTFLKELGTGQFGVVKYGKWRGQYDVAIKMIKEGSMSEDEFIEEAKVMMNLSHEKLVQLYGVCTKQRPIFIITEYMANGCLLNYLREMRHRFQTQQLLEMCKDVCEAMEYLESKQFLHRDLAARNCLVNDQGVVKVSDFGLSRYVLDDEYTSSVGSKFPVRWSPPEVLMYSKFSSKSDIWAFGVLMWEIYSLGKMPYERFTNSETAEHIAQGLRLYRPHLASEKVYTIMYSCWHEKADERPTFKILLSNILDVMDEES
value kind: residual activity

These recorded examples may help you get a feel for the data.
[[record]]
molecular_string = "O=Nc1c(-c2c(O)[nH]c3ccccc23)[nH]c2ccccc12"
value_kind = "residual activity"
result = "4%"

[[record]]
molecular_string = "CO[C@H]1C[C@@H]2CC[C@@H](C)[C@@](O)(O2)C(=O)C(=O)N2CCCC[C@H]2C(=O)O[C@H]([C@H](C)C[C@@H]2CC[C@@H](O)[C@H](OC)C2)CC(=O)[C@H](C)/C=C(\\C)[C@@H](O)[C@@H](OC)C(=O)[C@H](C)C[C@H](C)/C=C/C=C/C=C/1C"
value_kind = "residual activity"
result = "106%"


Incoming: Can you share its residual activity? I mean this compound: O=C1NC(=O)/C(=C\c2ccc3nccnc3c2)S1
Outgoing: 93%

Incoming: What do you have for Cc1nc(-c2ccccc2)c(-c2ccncc2)o1 ?
Outgoing: 83%

Incoming: What do we get for COc1cc2ncnc(N3CCN(C(=O)Nc4ccc(Oc5ccccc5)cc4)CC3)c2cc1OC ?
Outgoing: 112%

Incoming: What do you have for CCOc1cc2ncnc(Nc3cccc(Br)c3)c2cc1OCC ?
Outgoing: 28%

Incoming: Can you check Cc1ccc(S(=O)(=O)/C=C/C#N)cc1 next?
Outgoing: 96%

Incoming: Then CCN(CC)C(=O)c1ccc(Nc2nc(OCC3CCCCC3)c3nc[nH]c3n2)cc1 ?
Outgoing: -2%
